Conditions: 318.15 K; 101.33 kPa; Liquid
measuredParameter: viscosity (mPa·s)

Study these solved cases before continuing.
C=C(C)C(=O)OCc1ccccc1 [benzyl methacrylate] ... 1.58
C=C(C)C(=O)O ... 0.945

A. CCOCCC(=O)OCC [ethyl β-ethoxypropionate]
B. C=C(C)C(=O)OCCO [2-hydroxyethyl 2-methyl-2-propenoate]
Req: Quick one: lower viscosity, A or B ? Answer by stating the label of the chosen item.
Resp: A

====

Settings: 318.15 K; 101.33 kPa; Liquid
measuredParameter: mass density (kg/m3)

CCOCCC(=O)OCC [ethyl β-ethoxypropionate] ... 923.3
C=C(C)C(=O)O ... 989.2
C=C(C)C(=O)OCCO [2-hydroxyethyl 2-methyl-2-propenoate] ... 1048.6
C=C(C)C(=O)OCc1ccccc1 [benzyl methacrylate] ... 1017
